Values compiled from patent US20110190336A1.

Target: human DP2 receptor (Homo sapiens)
Assay: Prostaglandin D2 binding inhibition assay (scintillation proximity assay, 3H PGD2, membranes of transfected CHO cells)
Settings: SPA, 5.5 nM 3H PGD2, CHO-K1 FLP-In human DP2 membranes; upper limit determinable 30 μM; read-out: IC50 ranges for inhibition of PGD2 binding to human DP2
pIC50: −log10 of the molar value.
Reported pIC50 values for a set of compounds

O=C(O)Cn1c(=O)n(C2CCN(S(=O)(=O)c3ccccc3[N+](=O)[O-])CC2)c2ncccc21 | > 6.00
Cc1cnc2c(c1)n(CC(=O)O)c(=O)n2C1CCN(S(=O)(=O)c2ccc(F)cc2C)CC1 | 4.52 to 5.00
O=C(O)Cn1c(=O)n(C2CCN(S(=O)(=O)c3ccc(Cl)cc3Cl)CC2)c2cccnc21 | < 4.52
O=C(O)Cn1c(=O)n(C2CCN(S(=O)(=O)c3cc(Cl)cc(Cl)c3)CC2)c2ncccc21 | 5.00 to 6.00
O=C(O)Cn1c(=O)n(C2CCN(S(=O)(=O)c3ccc(F)c(F)c3)CC2)c2ncccc21 | 5.00 to 6.00
O=C(O)Cn1c(=O)n(C2CCN(S(=O)(=O)c3ccc(Cl)cc3Cl)C2)c2ncccc21 (centres unmarked) | 5.00 to 6.00
Cc1ccc(CS(=O)(=O)N2CCC(n3c(=O)n(CC(=O)O)c4cccnc43)CC2)cc1 | 4.52 to 5.00

The record that follows has no pIC50 shown yet.
Quick one: pIC50 for `O=C(O)Cn1c(=O)n(C2CCN(S(=O)(=O)c3ccc(F)c(Cl)c3)CC2)c2ncccc21` ? 5.00 to 6.00

====

Reported IC50 values for a set of molecules
Biological target: human DP2 receptor (Homo sapiens, UniProt Q9Y5Y4)
Sequence (Q9Y5Y4 whole entry): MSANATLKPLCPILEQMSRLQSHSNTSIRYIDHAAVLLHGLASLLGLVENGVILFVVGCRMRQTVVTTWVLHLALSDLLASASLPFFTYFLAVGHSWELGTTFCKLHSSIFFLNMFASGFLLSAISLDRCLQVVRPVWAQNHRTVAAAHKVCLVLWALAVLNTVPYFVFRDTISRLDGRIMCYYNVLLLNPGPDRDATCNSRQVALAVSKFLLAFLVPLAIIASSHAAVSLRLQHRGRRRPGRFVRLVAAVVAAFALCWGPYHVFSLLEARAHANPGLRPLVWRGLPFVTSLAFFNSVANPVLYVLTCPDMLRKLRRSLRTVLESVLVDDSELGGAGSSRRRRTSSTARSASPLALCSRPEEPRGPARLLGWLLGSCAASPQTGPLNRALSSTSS
Assay: Prostaglandin D2 binding inhibition assay (scintillation proximity assay, 3H PGD2, membranes of transfected CHO cells)
Details: SPA, 5.5 nM 3H PGD2, CHO-K1 FLP-In human DP2 membranes; upper limit determinable 30 μM; read-out: IC50 ranges for inhibition of PGD2 binding to human DP2

Sample records with IC50:
O=C(O)Cn1c(=O)n(C2CCN(S(=O)(=O)c3ccccc3C(F)(F)F)CC2)c2ncccc21 | < 1 µM
O=C(O)Cn1c(=O)n(C2CCN(S(=O)(=O)c3ccc(F)cc3Cl)CC2)c2ncccc21 | < 1 µM
Cc1ccc(S(=O)(=O)N2CCC(n3c(=O)n(CC(=O)O)c4cc(C)cnc43)CC2)c(F)c1 | 1 to 10 µM

The record that follows has no IC50 shown yet.
Give human DP2 receptor (Homo sapiens, UniProt Q9Y5Y4) IC50 for `O=C(O)Cn1c(=O)n(C2CCN(S(=O)(=O)c3ccsc3)CC2)c2ncccc21` 1 to 10 µM

====

Target: UniProt:Q9Y5Y4
Assay: Prostaglandin D2 binding inhibition assay (scintillation proximity assay, 3H PGD2, membranes of transfected CHO cells)
Settings: SPA, 5.5 nM 3H PGD2, CHO-K1 FLP-In human DP2 membranes; upper limit determinable 30 μM; read-out: IC50 ranges for inhibition of PGD2 binding to human DP2
Reported IC50 values for a set of molecules

Sample records with IC50:
CS(=O)(=O)c1ccccc1S(=O)(=O)N1CCC[C@H](n2c(=O)n(CC(=O)O)c3cccnc32)C1 | 1000 to 10000 nM
O=C(O)Cn1c(=O)n([C@@H]2CCCN(S(=O)(=O)c3ccc(F)cc3Cl)C2)c2ncccc21 | < 1000 nM
O=C(O)Cn1c(=O)n(C2CCN(S(=O)(=O)c3ccccc3Cl)CC2)c2ccncc21 | > 30000 nM

The record that follows has no IC50 shown yet.
Quick one: IC50 for `O=C(O)Cn1c(=O)n([C@@H]2CCN(S(=O)(=O)c3ccc(Cl)cc3Cl)C2)c2ncccc21` ? < 1000 nM
